Ref: patent US20200216416A1

target: human MET kinase D1228N (Homo sapiens, UniProt P08581, D1228N); construct: GST-tagged recombinant human MET kinase domain; assay: c-Met Enzyme Assay, D1228N mutant; conditions: averaged IC50; D1228N 2 nM; 60-minute incubation at 22° C.; read-out: D1228 N IC50
Sequence (P08581 1078-1345 D1228N): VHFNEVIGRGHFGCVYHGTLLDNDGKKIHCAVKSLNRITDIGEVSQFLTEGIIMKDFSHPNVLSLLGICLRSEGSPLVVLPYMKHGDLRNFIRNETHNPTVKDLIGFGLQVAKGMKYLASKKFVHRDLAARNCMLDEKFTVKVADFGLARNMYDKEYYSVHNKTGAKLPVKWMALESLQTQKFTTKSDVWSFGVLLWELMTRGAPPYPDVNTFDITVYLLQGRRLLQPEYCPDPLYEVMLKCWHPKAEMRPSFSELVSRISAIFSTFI
quantity: pIC50
Reminder that pIC50 is minus the log10 of a molar concentration.

// worked examples, pIC50 included
compound	system	numericValue
CCCC(CCC)n1cc(C(=O)Nc2ccc(Oc3ccnc4cc(OC)c(OC)cc34)cn2)c(=O)c(-c2ccc(F)cc2F)c1 [Example 17]	human MET kinase D1228N (Homo sapiens, UniProt P08581, D1228N)	7.60
COc1cc2nccc(Oc3ccc(NC(=O)c4cn(CC5CCOCC5)cc(-c5ccc(F)cc5)c4=O)nc3)c2cc1OC [Example 8]	human MET kinase D1228N (Homo sapiens, UniProt P08581, D1228N)	7.97
COc1cc2nccc(Oc3cnc(NC(=O)c4cn(C(C)C)c(C)c(-c5ccc(F)cc5)c4=O)nc3)c2cc1OC [Example 55]	human MET kinase D1228N (Homo sapiens, UniProt P08581, D1228N)	8.47
COc1cc2nccc(Oc3ccc(NC(=O)c4cn(C)c(C(C)C)c(-c5ccc(F)cc5)c4=O)nc3)c2cc1OC [Example 45]	human MET kinase D1228N (Homo sapiens, UniProt P08581, D1228N)	7.87

With those in mind, consider the next compound.
With human MET kinase D1228N (Homo sapiens, UniProt P08581, D1228N) as the test system, provide measured pIC50 for this compound: COc1cc2nccc(Oc3ccc(NC(=O)c4cn(C(C)C)cc(-c5ccc(F)cc5C)c4=O)nc3)c2cc1OC [Example 19]
8.44

###

target: MDR1 (P-gp) (Homo sapiens); construct: expressed in transfected cells; host or cells: LLC-PK1; assay: MDR1 LLC-PK1 permeability assay; assay type: in vitro ADME; details: pig, LLC-PK1, efflux ratio = Papp(B-A)/Papp(A-B), MDR1 transfected LLC-PK1 cells; read-out: MDR1 Pe Ratio
Sequence (P08183 whole entry): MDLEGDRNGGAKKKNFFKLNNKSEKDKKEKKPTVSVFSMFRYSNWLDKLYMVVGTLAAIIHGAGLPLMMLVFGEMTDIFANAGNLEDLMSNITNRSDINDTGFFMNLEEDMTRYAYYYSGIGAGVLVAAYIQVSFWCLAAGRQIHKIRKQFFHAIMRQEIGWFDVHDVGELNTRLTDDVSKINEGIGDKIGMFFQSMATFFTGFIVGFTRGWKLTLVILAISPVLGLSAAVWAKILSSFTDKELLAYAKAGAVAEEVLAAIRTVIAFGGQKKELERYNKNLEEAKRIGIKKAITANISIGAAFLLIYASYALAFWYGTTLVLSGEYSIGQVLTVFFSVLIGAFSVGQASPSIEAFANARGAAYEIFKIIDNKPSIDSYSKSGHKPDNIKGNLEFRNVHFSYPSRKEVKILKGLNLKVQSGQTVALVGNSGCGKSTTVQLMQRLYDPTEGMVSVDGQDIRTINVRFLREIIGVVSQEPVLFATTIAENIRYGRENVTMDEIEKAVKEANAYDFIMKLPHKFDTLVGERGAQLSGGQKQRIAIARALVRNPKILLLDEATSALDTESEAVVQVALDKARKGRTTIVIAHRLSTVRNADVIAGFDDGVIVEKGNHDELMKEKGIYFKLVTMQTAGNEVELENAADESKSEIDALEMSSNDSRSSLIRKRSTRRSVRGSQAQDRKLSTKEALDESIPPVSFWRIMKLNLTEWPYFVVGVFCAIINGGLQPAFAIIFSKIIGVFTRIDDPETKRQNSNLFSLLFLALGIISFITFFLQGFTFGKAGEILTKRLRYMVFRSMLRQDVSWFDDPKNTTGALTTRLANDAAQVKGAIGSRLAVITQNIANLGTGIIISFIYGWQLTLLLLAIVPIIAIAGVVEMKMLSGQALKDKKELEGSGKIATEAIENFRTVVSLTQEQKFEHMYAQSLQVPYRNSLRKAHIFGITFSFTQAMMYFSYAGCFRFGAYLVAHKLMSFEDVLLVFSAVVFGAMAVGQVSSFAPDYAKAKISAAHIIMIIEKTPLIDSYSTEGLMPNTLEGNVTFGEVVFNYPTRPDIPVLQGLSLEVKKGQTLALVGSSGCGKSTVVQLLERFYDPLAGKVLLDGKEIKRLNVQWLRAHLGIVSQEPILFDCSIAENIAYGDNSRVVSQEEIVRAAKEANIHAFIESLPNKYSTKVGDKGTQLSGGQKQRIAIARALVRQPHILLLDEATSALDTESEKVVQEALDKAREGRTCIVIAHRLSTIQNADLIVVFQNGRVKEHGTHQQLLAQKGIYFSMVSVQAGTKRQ
Reported values of efflux ratio at 2 h, 1 μM for individual entries
Quick one: just the number, no unit, thanks!

Worked examples, 5 compounds total:
compound	quantity	numericValue
COc1cc2nccc(Oc3cnc(NC(=O)c4cn(C(C)C)cc(-c5ccc(F)cc5)c4=O)nc3)c2cc1OC	efflux ratio at 2 h, 1 μM	114
COc1cc2nccc(Oc3ccc(NC(=O)c4cn(CC(=O)N(C)C)cc(-c5ccc(F)c(F)c5)c4=O)nc3)c2cc1OC	efflux ratio at 2 h, 1 μM	210
COc1cc2nccc(Oc3ccc(NC(=O)c4cn(CCN(C)C)cc(-c5ccc(F)cc5F)c4=O)nc3)c2cc1OC	efflux ratio at 2 h, 1 μM	11
COc1cc(-c2cn(C(C)C)cc(C(=O)Nc3ccc(Oc4ccnc5cc(OC)c(OC)cc45)cn3)c2=O)ccc1F	efflux ratio at 2 h, 1 μM	3.6
COc1cc2nccc(Oc3ccc(NC(=O)c4cn(CC5CCOCC5)cc(-c5ccc(F)cc5)c4=O)nc3)c2cc1OC	efflux ratio at 2 h, 1 μM	10

Give measured efflux ratio at 2 h, 1 μM for COc1cc2nccc(Oc3ccc(NC(=O)c4cn(CC(C)(C)O)cc(-c5ccc(F)cc5)c4=O)nc3)c2cc1OC (MDR1 (P-gp) (Homo sapiens)).
26

Fill in: efflux ratio at 2 h, 1 μM on MDR1 (P-gp) (Homo sapiens), entry COc1cc2nccc(Oc3ccc(NC(=O)c4cn(C(C)C)c(C)c(-c5ccc(F)cc5)c4=O)nc3)c2cc1OC
5.5

Provide efflux ratio at 2 h, 1 μM, recorded with MDR1 (P-gp) (Homo sapiens), of CCOc1ccc2c(Oc3ccc(NC(=O)c4cn(C(C)C)cc(-c5ccc(F)cc5)c4=O)nc3)ccnc2c1
1.8

###

Measured efflux ratio at 2 h, 1 μM, listed per entry.
target: MDR1 (P-gp) (Homo sapiens); construct: expressed in transfected cells; host or cells: LLC-PK1; assay: MDR1 LLC-PK1 permeability assay; assay type: in vitro ADME; conditions: pig, LLC-PK1, efflux ratio = Papp(B-A)/Papp(A-B), MDR1 transfected LLC-PK1 cells; read-out: MDR1 Pe Ratio
No unit in the answer, please; the number alone is enough.

compound	efflux ratio at 2 h, 1 μM
COc1cc2nccc(Oc3ccc(NC(=O)c4cn(CC(=O)N(C)C)cc(-c5ccc(F)cc5)c4=O)nc3)c2cc1OC	105

Return efflux ratio at 2 h, 1 μM (reported value) for this compound: CCC(CC)n1cc(C(=O)Nc2ccc(Oc3ccnc4cc(OC)c(OC)cc34)cn2)c(=O)c(-c2ccc(F)cc2F)c1
2

Identify the reported efflux ratio at 2 h, 1 μM for the following entry. COc1cc2nccc(Oc3ccc(NC(=O)c4cn(C(C)C)cc(-c5ccc(F)cc5Cl)c4=O)nc3)c2cc1OC
2.1

Output measured efflux ratio at 2 h, 1 μM for this item: COc1cc2nccc(Oc3ccc(NC(=O)c4cn(CC(=O)N5CCOCC5)cc(-c5ccc(F)cc5F)c4=O)nc3)c2cc1OC
135

Check the records and state efflux ratio at 2 h, 1 μM for COc1cc2nccc(Oc3ccc(NC(=O)c4cn(C(C)C)cc(-c5ccc(F)c(F)c5)c4=O)nc3)c2cc1OC
4.9

Consider the compound COc1cc2nccc(Oc3ccc(NC(=O)c4cn(CCC(C)C)cc(-c5ccc(F)cc5F)c4=O)nc3)c2cc1OC and give its recorded efflux ratio at 2 h, 1 μM.
4.3

For the compound COc1cc2nccc(Oc3ccc(NC(=O)c4cn(CC(=O)N(C)C)cc(-c5ccc(Cl)cc5)c4=O)nc3)c2cc1OC , report efflux ratio at 2 h, 1 μM.
136

Return the recorded efflux ratio at 2 h, 1 μM value; entry: COc1cc2nc(C)cc(Oc3ccc(NC(=O)c4cn(C(C)C)cc(-c5ccc(F)cc5)c4=O)nc3)c2cc1OC
3.4

Provide only the value of recorded efflux ratio at 2 h, 1 μM for COc1cc2nccc(Oc3ccc(NC(=O)c4cn(C5CCOCC5)cc(-c5ccc(F)cc5)c4=O)nc3)c2cc1OC
15
